Data origin: PubChem BioAssay (EPA / NIEHS)

# Assay details: CCTE_Shafer_MEA_acute_interburst_interval_mean: CCTE's Neural Acute Assay for Mean Interburst Interval, Shafer Lab (AID 2284016);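 also: percent change of mean interburst interval versus each well's own pre-dose baseline; curves fitted for decrease in interburst interval relative to DMSO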
Activity calls are given as the source filed them. The calls were made as follows: active = hit-call score of the fitted dose curve at least 0.9, where 1 is the maximum; inactive = score below 0.9.
Result type: AC50

Known AC50 results, listed for orientation:
COC(=O)N(C(=O)N1CO[C@@]2(C(=O)OC)Cc3cc(Cl)ccc3C2=N1)c1ccc(OC(F)(F)F)cc1 | 15 µM (active)
CO/N=C(/C1=NOCCO1)c1ccccc1Oc1ncnc(Oc2ccccc2Cl)c1F | inactive
CCOC(=O)C(C)OC(=O)c1cc(Oc2ccc(C(F)(F)F)cc2Cl)ccc1[N+](=O)[O-] (configuration not stated) | inactive
CCOc1cc(C(C)(C)C)ccc1C1COC(c2c(F)cccc2F)=N1 (configuration not stated) | inactive
CNC(=O)Oc1cccc2ccccc12 | inactive
CCCCC(O)(Cn1cncn1)c1ccc(Cl)cc1Cl (configuration not stated) | inactive
Clc1nc(Cl)nc(Nc2ccccc2Cl)n1 | inactive
CC(C)N1C(=O)N(c2ccccc2)CSC1=NC(C)(C)C | inactive
O=C(Nc1ccccc1-c1ccc(Cl)cc1)c1cccnc1Cl | inactive
CCOc1nc(F)cc2nc(S(=O)(=O)Nc3c(Cl)cccc3Cl)nn12 | inactive

Give measured AC50 for every item shown.
1. CC1(C)CCC(=Cc2ccc(Cl)cc2)C1(O)Cn1cncn1 (configuration not stated)
2. CC(C)=CC1C(C(=O)OCc2coc(Cc3ccccc3)c2)C1(C)C (configuration not stated)
3. N#CN=C1SCCN1Cc1ccc(Cl)nc1
4. Nc1c(Cl)c(F)nc(OCC(=O)O)c1Cl
5. CC1(C)C(C(=O)OC(C#N)c2cccc(Oc3ccccc3)c2)C1(C)C (configuration not stated)
6. OC(c1ccc(Cl)cc1)(c1ccc(Cl)cc1)C(Cl)(Cl)Cl
7. CN/C(=N\[N+](=O)[O-])NCc1cnc(Cl)s1

[reply]
1: inactive; 2: 31.2 µM (active); 3: inactive; 4: inactive; 5: 0.309 µM (active); 6: inactive; 7: inactive

----------
# Read-out: Vascular cell adhesion molecule 1 (VCAM1), VCAM1 (gene 7412)
# Assay details: BSK_4H_VCAM1: BioMAP Diversity Plus: 4H Assay for Vascular cell adhesion molecule 1 (VCAM1) Biomarker Activity (AID 2283033)
# Cond: primary human endothelial cells (HUVEC); actives raise or lower the signal
Active and inactive are the calls of the source. How the source made its calls: active means hit-call score of the fitted dose curve at least 0.9, where 1 is the maximum; inactive means score below 0.9.
In this exercise, the only acceptable responses are Y for active, N for inactive

The following molecules have reported results that may help.
COc1cc(OC)nc(NC(=O)NS(=O)(=O)c2ncccc2OCC(F)(F)F)n1 | N
CSC(=O)c1c(C(F)F)nc(C(F)(F)F)c(C(=O)SC)c1CC(C)C | N
CC(C)NC(=O)N1CC(=O)N(c2cc(Cl)cc(Cl)c2)C1=O | N
Cc1ccc(N=CN(C)C=Nc2ccc(C)cc2C)c(C)c1 | Y

[ask] Assay outcome for CCC(C)n1c(=O)[nH]c(C)c(Br)c1=O (configuration not stated) : what was it?
[reply] N

[ask] Assay outcome for CC1(C)C(C=C(Cl)Cl)C1C(=O)OC(C#N)c1cccc(Oc2ccccc2)c1 (configuration not stated) : what was it?
[reply] N

[ask] Assay outcome for CCOc1nc(F)cc2nc(S(=O)(=O)Nc3c(Cl)cccc3Cl)nn12 : what was it?
[reply] N

[ask] Assay outcome for COCC(C)N(C(=O)CCl)c1c(C)csc1C (configuration not stated) : what was it?
[reply] N

[ask] Assay outcome for CCOc1nc(C(Cl)(Cl)Cl)ns1 : what was it?
[reply] N

[ask] Assay outcome for CCCN(CC)CC1COC2(CCC(C(C)(C)C)CC2)O1 (configuration not stated) : what was it?
[reply] N

[ask] Assay outcome for Cc1cc(C)nc(Nc2ccccc2)n1 : what was it?
[reply] N

[ask] Assay outcome for CCSC(=O)N1CCCCCC1 : what was it?
[reply] N
